# MEASURED TARGET: Cytochrome b6-f complex subunit 4 (Spinacia oleracea)
# EXPERIMENTAL DETAILS: Inhibition of photosynthetic electron transport protein complex in Spinacia oleracea (spinach) leaf thylakoid membranes up to 100 uM measured at 30 seconds intervals for 10 min
Active and inactive are the calls of the source. The calls are words filed in the database; no cut-off is given here.
METRIC: inhibition

Record excerpt, results attached:
# GIVEN SMILES, RECORDED MEASUREMENT
measured = [
    ("CN(C)c1ccc(/C=C2/C=C(Cc3ccccc3)C(=O)O2)cc1", "inactive"),
    ("O=C1O/C(=C\\c2ccc(Cl)cc2)C=C1Cc1ccccc1", "inactive"),
    ("O=C1O/C(=C\\c2ccc(Br)cc2)C=C1Cc1ccccc1", "inactive"),
    ("O=C1O/C(=C\\c2ccc(O)cc2)C=C1Cc1ccccc1", "inactive"),
    ("O=C1O/C(=C\\c2ccc(-c3ccccc3)cc2)C=C1Cc1ccccc1", "inactive"),
    ("N#Cc1cccc(/C=C2/C=C(Cc3ccccc3)C(=O)O2)c1", "inactive"),
    ("N#Cc1ccc(/C=C2/C=C(Cc3ccccc3)C(=O)O2)cc1", "inactive"),
    ("O=C1O/C(=C\\c2ccccc2O)C=C1Cc1ccccc1", "inactive"),
    ("O=C1O/C(=C\\c2ccc3c(c2)OCO3)C=C1Cc1ccccc1", "inactive"),
    ("COc1ccc(/C=C2/C=C(Cc3ccccc3)C(=O)O2)cc1O", "inactive"),
]

input: # returns recorded inhibition (system: Cytochrome b6-f complex subunit 4 (Spinacia oleracea)) for Cc1ccc(/C=C2/C=C(Cc3ccccc3)C(=O)O2)cc1
output: inactive

input: Entry to check: CN(C)c1ccc(/C=C2/C=C(Cc3ccccc3)C(=O)O2)c(Cl)c1
output: inactive

input: Entry to check: O=C1O/C(=C\c2cccc(O)c2)C=C1Cc1ccccc1
output: inactive

The reported measurements were obtained from ChEMBL document CHEMBL3046472.
